system: YAPC (Pancreatic Carcinoma); assay: combination Emax (second highest fraction inhibited in the dose matrix, 72 h); higher = more inhibition; extreme values may be limits of the assay
Answer not met if combination Emax is under 0.3, and met if it is 0.3 or more.

Could you verify whether the entry Cc1c2c(nn1C)CSCc1cc(n(C)n1)CSc1cc(c3ccccc3c1)OCCCc1c(C(=O)O)n(C)c3c-2c(Cl)ccc13 [AZD5991] + CC(=O)O[C@H]1C(=O)[C@@]2(C)[C@H]([C@H](OC(=O)c3ccccc3)[C@]3(O)C[C@H](OC(=O)[C@H](O)[C@@H](NC(=O)c4ccccc4)c4ccccc4)C(C)=C1C3(C)C)[C@]1(OC(C)=O)CO[C@@H]1C[C@@H]2O [Paclitaxel] (first compound max 1 µM, 7x7, partner max 3 µM) shows combination Emax of no less than 0.3?
met

Could you please find out whether CC1(C)CCC(CN2CCN(c3ccc(C(=O)NS(=O)(=O)c4ccc(NCC5CCOCC5)c([N+](=O)[O-])c4)c(Oc4cnc5[nH]ccc5c4)c3)CC2)=C(c2ccc(Cl)cc2)C1 [Venetoclax] + Cn1cnc2c(F)c(Nc3ccc(Br)cc3Cl)c(C(=O)NOCCO)cc21 [Selumetinib] (first compound max 1 µM, 7x7, partner max 3 µM) has combination Emax that meets 0.3 or exceeds it?
not met

Textbook exercise: given the entry CC(=O)c1c(C)c2cnc(Nc3ccc(N4CCNCC4)cn3)nc2n(C2CCCC2)c1=O [Palbociclib] + Cc1c2c(nn1C)CSCc1cc(n(C)n1)CSc1cc(c3ccccc3c1)OCCCc1c(C(=O)O)n(C)c3c-2c(Cl)ccc13 [AZD5991] (first compound max 10 µM, 7x7, partner max 1 µM) , state whether its combination Emax is greater than or equal to 0.3.
not met

Determine whether measured combination Emax meets or exceeds 0.3 for N#Cc1cnc(Nc2cc(NC[C@H]3CNCCO3)c(C(F)(F)F)cn2)cn1 [SRA737] + Nc1ccn([C@@H]2O[C@H](CO)[C@@H](O)C2(F)F)c(=O)n1 [Gemcitabine] (first compound max 10 µM, 7x7, partner max 0.3 µM)
met

Does the reported combination Emax for COc1cccc(OCCCN)c1-c1cc(Nc2cnc(C#N)cn2)n[nH]1 [Prexasertib] + C[C@@H]1COCCN1C2=NC(=NC(=C2)C3(CC3)[S@](=N)(=O)C)C4=C5C=CNC5=NC=C4 [AZD6738] (first compound max 1 µM, 7x7, partner max 10 µM) fall at or above the 0.3 mark?
met

Answer whether combination Emax of Cc1c2c(nn1C)CSCc1cc(n(C)n1)CSc1cc(c3ccccc3c1)OCCCc1c(C(=O)O)n(C)c3c-2c(Cl)ccc13 [AZD5991] + Nc1ccn([C@@H]2O[C@H](CO)[C@@H](O)C2(F)F)c(=O)n1 [Gemcitabine] (first compound max 1 µM, 7x7, partner max 0.3 µM) is greater than or equal to 0.3.
met

Has Cc1cc2ncnn2cc1Nc1ncc2c(n1)n(C1CCOCC1)c(=O)n2C [AZD7648] + CCN(CCO)CCCOc1ccc2c(Nc3cc(CC(=O)Nc4cccc(F)c4)[nH]n3)ncnc2c1 [AZD2811] (first compound max 10 µM, 7x7, partner max 1 µM) a recorded combination Emax greater than or equal to 0.3?
not met

Values were extracted from the supplement of paper PMC11061612.
